Hey, just so you know, these numbers are from ChEMBL document CHEMBL4387766.

System: CWR22R
Assay: Cytotoxicity against PSMA-positive human 22Rv1 cells assessed as reduction in cell viability measured after 72 hrs by MTT assay
Format: functional
Settings: 22Rv1, 72 h
Param label: returns Fulfilled when CC50 < 100 nM, returns Not fulfilled otherwise, including exact equality.

>>> classification("CC(=O)O[C@H]1C(=O)[C@@]2(C)[C@H]([C@H](OC(=O)c3ccccc3)[C@]3(O)C[C@H](OC(=O)[C@H](OC(=O)CCCc4cn(CCCCCCCCCCNC(=O)NCCCC[C@H](NC(=O)N[C@@H](CCC(=O)O)C(=O)O)C(=O)O)nn4)[C@@H](NC(=O)c4ccccc4)c4ccccc4)C(C)=C1C3(C)C)[C@]1(OC(C)=O)CO[C@@H]1C[C@@H]2O")
"Not fulfilled"
>>> classification("CC(=O)O[C@H]1C(=O)[C@@]2(C)[C@H]([C@H](OC(=O)c3ccccc3)[C@]3(O)C[C@H](OC(=O)[C@H](O)[C@@H](NC(=O)c4ccccc4)c4ccccc4)C(C)=C1C3(C)C)[C@]1(OC(C)=O)CO[C@@H]1C[C@@H]2O [PACLITAXEL]")
"Fulfilled"
>>> classification("CC(=O)O[C@H]1C(=O)[C@@]2(C)[C@H]([C@H](OC(=O)c3ccccc3)[C@]3(O)C[C@H](OC(=O)[C@H](OC(=O)CCCc4cn(CCCCCC(=O)N(CCCC[C@H](NC(=O)N[C@@H](CCC(=O)O)C(=O)O)C(=O)O)Cc5ccc(Cl)cc5)nn4)[C@@H](NC(=O)c4ccccc4)c4ccccc4)C(C)=C1C3(C)C)[C@]1(OC(C)=O)CO[C@@H]1C[C@@H]2O")
"Not fulfilled"
>>> classification("CC(=O)O[C@H]1C(=O)[C@@]2(C)[C@H]([C@H](OC(=O)c3ccccc3)[C@]3(O)C[C@H](OC(=O)[C@H](OC(=O)CCCc4cn(CCCCCNC(=O)NCCCC[C@H](NC(=O)N[C@@H](CCC(=O)O)C(=O)O)C(=O)O)nn4)[C@@H](NC(=O)c4ccccc4)c4ccccc4)C(C)=C1C3(C)C)[C@]1(OC(C)=O)CO[C@@H]1C[C@@H]2O")
"Fulfilled"
>>> classification("CC(=O)O[C@H]1C(=O)[C@@]2(C)[C@H]([C@H](OC(=O)c3ccccc3)[C@]3(O)C[C@H](OC(=O)[C@H](OC(=O)CCCc4cn(CCCCCC(=O)N(CCCC[C@H](NC(=O)N[C@@H](CCC(=O)O)C(=O)O)C(=O)O)Cc5ccc(O)cc5)nn4)[C@@H](NC(=O)c4ccccc4)c4ccccc4)C(C)=C1C3(C)C)[C@]1(OC(C)=O)CO[C@@H]1C[C@@H]2O")
"Fulfilled"
>>> classification("CC(=O)O[C@H]1C(=O)[C@@]2(C)[C@H]([C@H](OC(=O)c3ccccc3)[C@]3(O)C[C@H](OC(=O)[C@H](OC(=O)CCCc4cn(CCCCCCCCCCC(=O)NCCCC[C@H](NC(=O)N[C@@H](CCC(=O)O)C(=O)O)C(=O)O)nn4)[C@@H](NC(=O)c4ccccc4)c4ccccc4)C(C)=C1C3(C)C)[C@]1(OC(C)=O)CO[C@@H]1C[C@@H]2O")
"Not fulfilled"

* * *

Assay: Cytotoxicity against HEK293T cells assessed as reduction in cell viability measured after 72 hrs by MTT assay
Type: cell-based, HEK-293T
Conditions: human
observedProperty: CC50 at 72 h (µM)

>>> recordedresult("CC(=O)O[C@H]1C(=O)[C@]2(C)[C@@H](OC(=O)CCCc3cn(CCCCCCCCCCC(=O)NCCCC[C@H](NC(=O)N[C@@H](CCC(=O)O)C(=O)O)C(=O)O)nn3)C[C@H]3OC[C@@]3(OC(C)=O)[C@H]2[C@H](OC(=O)c2ccccc2)[C@]2(O)C[C@H](OC(=O)[C@H](O)[C@@H](NC(=O)c3ccccc3)c3ccccc3)C(C)=C1C2(C)C")
0.73
